# ASSAY DETAILS: Tissue distribution study after intravenous compound K (2 mg/kg) in SD rats
# Format: in vivo
# TEST SETTINGS: male, SD, rat, liver (relative to plasma), compound K IV 2 mg/kg, 0.17-24 h, read-out: liver to plasma AUC ratio
RECORDED ENDPOINT: Kp
Note: the reply should be a number with no unit written.

Reported Kp for CC(C)=CCCC(C)(OC1OC(CO)C(O)C(O)C1O)C1CCC2(C)C1C(O)CC1C3(C)CCC(O)C(C)(C)C3CCC12C (stereo not shown) : what is it?
11.1

###

# ASSAY DETAILS: Pharmacokinetics, biliary excretion and metabolism of compound K in bile cannulated and non-bile cannulated rats
# Type: in vivo, SD rats
# TEST SETTINGS: SD, rat, plasma, iv, 2 mg/kg, bile cannulated rat, compound K IV 2 mg/kg
RECORDED ENDPOINT: half-life (min)
Your answer should be a plain number; it is taken to be in min.

Tell me the measured half-life of CC(C)=CCCC(C)(OC1OC(CO)C(O)C(O)C1O)C1CCC2(C)C1C(O)CC1C3(C)CCC(O)C(C)(C)C3CCC12C (stereo not shown) [compound K] , please.
46.8
